ASSAY_INFO: Pharmacokinetic assay in rat in vivo
PROTOCOL_CONDITIONS: Sprague-Dawley (SD), plasma, male SD rats, IV(2 mg/kg), dosage in Table 3 (Compound 16: 0.45 mg/kg), read-out: T1/2 (half-life) (converted)
REPORTED_PROPERTY: half-life (min)

I. O=c1ccc2cnc3ccc(-c4c[nH]c5ncccc45)nc3c2n1-c1cccc(C(F)(F)F)c1
II. N#Cc1ccc(-c2ccc3ncc4ccc(=O)n(-c5cccc(C(F)(F)F)c5)c4c3n2)cn1
Compare half-life: is it lower for I or for II ? Write the label of whichever entry you select.
I

---

ASSAY_INFO: Pharmacokinetic assay in rat in vivo
PROTOCOL_CONDITIONS: Sprague-Dawley (SD), plasma, male SD rats, PO(4 mg/kg) vs IV, read-out: F(%) absolute bioavailability
REPORTED_PROPERTY: bioavailability (%)

Known results for molecules:
Give the reported bioavailability for this molecule. O=c1ccc2cnc3ccc(-c4c[nH]c5ncccc45)nc3c2n1-c1cccc(C(F)(F)F)c1 [Compound 17]
20.8

Specify reported bioavailability for the molecule shown: N#Cc1ccc(-c2ccc3ncc4ccc(=O)n(-c5cccc(C(F)(F)F)c5)c4c3n2)cn1 [Compound 16]
23

a. CC(=O)Nc1ccc(-c2ccc3ncc4ccc(=O)n(-c5cccc(C(F)(F)F)c5)c4c3n2)cn1 [Compound 15]
b. Nc1ccc(-c2ccc3ncc4ccc(=O)n(-c5cccc(C(F)(F)F)c5)c4c3c2)cn1 [Torin-2, reference compound]
c. COc1ncc(-c2ccc3ncc4ccc(=O)n(-c5cccc(C(F)(F)F)c5)c4c3n2)cn1 [Compound 14]
Reorder: bioavailability, max to min. Returns: the labels arranged in the requested order.
a, c, b
(a: 65%, c: 42.3%, b: 22.6%)

Hello, the source for this data is patent US9475812B2, in case you need it.
